- Test system: Scenedesmus acutus
- test summary: Phytotoxicity against Scenedesmus acutus assessed as reduction in chlorophyll content by spectroscopy
- Format: functional, organism-based
- reported conditions: read-out: pI50 (converted)
parameter measured: IC50 (nM)
Report the value in nM with no unit label.

// known answers, use as guide
INPUT: Given the entry O=C1C2=C(CCCC2)C(=O)N1c1ccc(Cl)cc1 [CHLOROPHTHALIUM] , report its measured IC50.
OUTPUT: 79.4

INPUT: Given the entry `COC(=O)c1cc(N2C(=O)C3=C(CCCC3)C2=O)c(F)cc1Cl` , report its measured IC50.
OUTPUT: 110

Let us examine a further case.
INPUT: Given the entry `CCCCCOC(=O)c1cc(N2C(=O)C3=C(CCCC3)C2=O)ccc1Cl` , report its measured IC50.
OUTPUT: 9330

---

- System: Scenedesmus acutus
- test summary: Phytotoxicity against Scenedesmus acutus assessed as reduction in chlorophyll content by spectroscopy
- Format: functional, organism-based
- reported conditions: read-out: pI50 (converted)
parameter measured: IC50 (nM)
Report the value in nM with no unit label.

INPUT: Given the entry `CCCCOC(=O)c1cc(N2C(=O)C3=C(CCCC3)C2=O)ccc1Cl` , report its measured IC50.
OUTPUT: 3550

INPUT: Given the entry `CC(C)(C)OC(=O)c1cc(N2C(=O)C3=C(CCCC3)C2=O)ccc1Cl` , report its measured IC50.
OUTPUT: 12900

INPUT: Given the entry CCC(C)OC(=O)c1cc(N2C(=O)C3=C(CCCC3)C2=O)c(F)cc1Cl (centres undefined) , report its measured IC50.
OUTPUT: 24.5

Let us examine a further case.
INPUT: Given the entry `CCCOC(=O)c1cc(N2C(=O)C3=C(CCCC3)C2=O)c(F)cc1Cl` , report its measured IC50.
OUTPUT: 89.1

---

- Tested on: Scenedesmus acutus
- test summary: Phytotoxicity against Scenedesmus acutus assessed as reduction in chlorophyll content by spectroscopy
- Format: functional, organism-based
- reported conditions: read-out: pI50 (converted)
Listed below: log10 of IC50 values for each entry.
Short version: log10 scale, IC50, nM.

// known answers, use as guide
INPUT: Given the entry `CCOC(=O)c1cc(N2C(=O)C3=C(CCCC3)C2=O)c(F)cc1Cl` , report its measured log10 of IC50.
OUTPUT: 2.00

INPUT: Given the entry `C#CCOc1cc(N2C(=O)C3=C(CCCC3)C2=O)ccc1Cl` , report its measured log10 of IC50.
OUTPUT: 1.90

INPUT: Given the entry COC(=O)c1cc(Oc2ccc(C(F)(F)F)cc2Cl)ccc1[N+](=O)[O-] [ACIFLUORFEN-METHYL] , report its measured log10 of IC50.
OUTPUT: 1.79

More entries:
INPUT: Given the entry `C#CCOc1cc(N2C(=O)C3=C(CCCC3)C2=O)c(F)cc1Cl` , report its measured log10 of IC50.
OUTPUT: 1.20

---

- System: Scenedesmus acutus
- test summary: Peroxidizing phytotoxicity against Scenedesmus acutus assessed as ethane production after 20 hr
- Assay type: functional, organism-based
- reported conditions: read-out: pI50 (converted)
parameter measured: IC50 (µM)
Report the value in µM with no unit label.

// known answers, use as guide
INPUT: Given the entry `CCCCOC(=O)c1cc(N2C(=O)C3=C(CCCC3)C2=O)ccc1Cl` , report its measured IC50.
OUTPUT: 7.76

INPUT: Given the entry `O=C1C2=C(CCCC2)C(=O)N1c1ccc(Cl)cc1F` , report its measured IC50.
OUTPUT: 0.24

INPUT: Given the entry CCC(C)OC(=O)c1cc(N2C(=O)C3=C(CCCC3)C2=O)ccc1Cl (stereo not given) , report its measured IC50.
OUTPUT: 9.77

INPUT: Given the entry `COC(=O)c1cc(Oc2ccc(C(F)(F)F)cc2Cl)ccc1[N+](=O)[O-]` , report its measured IC50.
OUTPUT: 0.0234

Let us examine a further case.
INPUT: Given the entry `O=C(O)c1cc(N2C(=O)C3=C(CCCC3)C2=O)c(F)cc1Cl` , report its measured IC50.
OUTPUT: 3.16

---

- System: Scenedesmus acutus
- test summary: Peroxidizing phytotoxicity against Scenedesmus acutus assessed as ethane production after 20 hr
- Assay type: functional, organism-based
- reported conditions: read-out: pI50 (converted)
Labelling: IC50 reported below 500 nM becomes satisfied; at or above becomes not satisfied.

Solved cases (5 shown):
INPUT: Hello, is IC50 of the following compound strictly smaller than 500 nM? `CC(C)COC(=O)c1cc(N2C(=O)C3=C(CCCC3)C2=O)ccc1Cl`
OUTPUT: not satisfied

INPUT: Hello, is IC50 of the following compound strictly smaller than 500 nM? `C#CCOc1cc(N2C(=O)C3=C(CCCC3)C2=O)ccc1Cl`
OUTPUT: not satisfied

INPUT: Hello, is IC50 of the following compound strictly smaller than 500 nM? `C#CCOc1cc(N2C(=O)C3=C(CCCC3)C2=O)c(F)cc1Cl`
OUTPUT: satisfied

INPUT: Hello, is IC50 of the following compound strictly smaller than 500 nM? `CC(C)COC(=O)c1cc(N2C(=O)C3=C(CCCC3)C2=O)c(F)cc1Cl`
OUTPUT: satisfied

INPUT: Hello, is IC50 of the following compound strictly smaller than 500 nM? `CCCCOC(=O)c1cc(N2C(=O)C3=C(CCCC3)C2=O)c(F)cc1Cl`
OUTPUT: satisfied

More entries:
INPUT: Hello, is IC50 of the following compound strictly smaller than 500 nM? `CC(C)OC(=O)c1cc(N2C(=O)C3=C(CCCC3)C2=O)c(F)cc1Cl`
OUTPUT: satisfied

INPUT: Hello, is IC50 of the following compound strictly smaller than 500 nM? O=C1C2=C(CCCC2)C(=O)N1c1ccc(Cl)cc1 [CHLOROPHTHALIUM]
OUTPUT: not satisfied

INPUT: Hello, is IC50 of the following compound strictly smaller than 500 nM? `CCCOC(=O)c1cc(N2C(=O)C3=C(CCCC3)C2=O)c(F)cc1Cl`
OUTPUT: satisfied

INPUT: Hello, is IC50 of the following compound strictly smaller than 500 nM? `CCCCCCCCOC(=O)c1cc(N2C(=O)C3=C(CCCC3)C2=O)ccc1Cl`
OUTPUT: not satisfied

INPUT: Hello, is IC50 of the following compound strictly smaller than 500 nM? `COC(=O)c1cc(N2C(=O)C3=C(CCCC3)C2=O)ccc1Cl`
OUTPUT: not satisfied

---

Listed below: IC50 values for each entry.
- study target: Protoporphyrinogen IX oxidase (Zea mays)
- Sequence (Q9FYV8 whole entry): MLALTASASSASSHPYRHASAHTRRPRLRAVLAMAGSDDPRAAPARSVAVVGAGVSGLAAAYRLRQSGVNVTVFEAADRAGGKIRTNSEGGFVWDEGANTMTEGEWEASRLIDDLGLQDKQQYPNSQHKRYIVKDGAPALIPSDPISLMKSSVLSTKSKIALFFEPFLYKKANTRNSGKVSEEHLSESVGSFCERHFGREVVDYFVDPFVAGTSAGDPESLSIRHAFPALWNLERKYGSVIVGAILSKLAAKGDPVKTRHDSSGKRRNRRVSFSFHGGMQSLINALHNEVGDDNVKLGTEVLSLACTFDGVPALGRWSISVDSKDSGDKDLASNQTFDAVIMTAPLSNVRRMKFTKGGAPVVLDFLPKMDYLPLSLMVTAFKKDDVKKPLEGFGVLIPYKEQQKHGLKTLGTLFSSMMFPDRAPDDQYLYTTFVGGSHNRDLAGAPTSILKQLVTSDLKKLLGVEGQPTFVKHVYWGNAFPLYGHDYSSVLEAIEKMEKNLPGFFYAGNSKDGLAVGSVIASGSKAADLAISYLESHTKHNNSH
- test summary: Inhibition of protoporphyrinogen IX oxidase in Zea mays cv. Anjou (maize) seedlings homogenates assessed as protoporphyrinogen IX formation by spectrophotometry
- reported conditions: read-out: pI50 (converted)
Report the value in nM with no unit label.

INPUT: # query: IC50 | item `CCOC(=O)c1cc(N2C(=O)C3=C(CCCC3)C2=O)c(F)cc1Cl` | system: Protoporphyrinogen IX oxidase (Zea mays)
OUTPUT: 4.17

INPUT: # query: IC50 | item `CCOC(=O)c1cc(N2C(=O)C3=C(CCCC3)C2=O)ccc1Cl` | system: Protoporphyrinogen IX oxidase (Zea mays)
OUTPUT: 3.72

INPUT: # query: IC50 | item `C#CCOc1cc(N2C(=O)C3=C(CCCC3)C2=O)c(F)cc1Cl` | system: Protoporphyrinogen IX oxidase (Zea mays)
OUTPUT: 1.82

INPUT: # query: IC50 | item CCC(C)OC(=O)c1cc(N2C(=O)C3=C(CCCC3)C2=O)ccc1Cl (configuration not stated) | system: Protoporphyrinogen IX oxidase (Zea mays)
OUTPUT: 2.51

INPUT: # query: IC50 | item COC(=O)c1cc(Oc2ccc(C(F)(F)F)cc2Cl)ccc1[N+](=O)[O-] [ACIFLUORFEN-METHYL] | system: Protoporphyrinogen IX oxidase (Zea mays)
OUTPUT: 2.19

---

Listed below: IC50 values for each entry.
- Test system: Scenedesmus acutus
- test summary: Peroxidizing phytotoxicity against Scenedesmus acutus assessed as ethane production after 20 hr
- Format: functional, organism-based
- reported conditions: read-out: pI50 (converted)
Report the value in nM with no unit label.

// known answers, use as guide
INPUT: Given the entry `CCOC(=O)c1cc(N2C(=O)C3=C(CCCC3)C2=O)ccc1Cl` , report its measured IC50.
OUTPUT: 2140

INPUT: Given the entry CCC(C)OC(=O)c1cc(N2C(=O)C3=C(CCCC3)C2=O)c(F)cc1Cl (stereo not given) , report its measured IC50.
OUTPUT: 74.1

INPUT: Given the entry `COC(=O)c1cc(N2C(=O)C3=C(CCCC3)C2=O)c(F)cc1Cl` , report its measured IC50.
OUTPUT: 170

INPUT: Given the entry `CC(C)OC(=O)c1cc(N2C(=O)C3=C(CCCC3)C2=O)ccc1Cl` , report its measured IC50.
OUTPUT: 182

More entries:
INPUT: Given the entry `CCCCCOC(=O)c1cc(N2C(=O)C3=C(CCCC3)C2=O)ccc1Cl` , report its measured IC50.
OUTPUT: 5370

INPUT: Given the entry `O=C(O)c1cc(Oc2ccc(C(F)(F)F)cc2Cl)ccc1[N+](=O)[O-]` , report its measured IC50.
OUTPUT: 1020

INPUT: Given the entry `CCOC(=O)c1cc(N2C(=O)C3=C(CCCC3)C2=O)c(F)cc1Cl` , report its measured IC50.
OUTPUT: 87.1

INPUT: Given the entry `CCCOC(=O)c1cc(N2C(=O)C3=C(CCCC3)C2=O)ccc1Cl` , report its measured IC50.
OUTPUT: 661
